- System: Oilseed Rape
- assay remarks: Test C postemergence: oilseed rape
- Assay type: in vivo, Brassica napus
- measurement setup: 125 g ai/ha, scale 0 to 100, 0 no effect, 100 complete control
measured parameter: Plant response rating, Oilseed Rape

>>> reported_measurement("CCCc1nn(-c2ccc(F)cc2)nc1Oc1ccnc(C(F)(F)F)c1 [Compound 168]")
90
>>> reported_measurement("CCc1nn(-c2ccc(C(F)(F)F)cc2)nc1Cc1ccnc(C(F)(F)F)c1 [Compound 155]")
95
>>> reported_measurement("CCc1nn(-c2ccc(F)c(F)c2)nc1Oc1ccnc(C(F)(F)F)c1 [Compound 171]")
30
>>> reported_measurement("CCc1nn(-c2ccc(C(F)(F)F)cc2)nc1Oc1ccnc(C(F)(F)F)c1 [Compound 169]")
40
>>> reported_measurement("CCc1nn(-c2ccc(C(F)(F)F)c(F)c2)nc1Oc1ccnc(C(F)(F)F)c1 [Compound 183]")
25

* * *

- System: ducksalad (Heteranthera limosa)
- assay remarks: Test C flooded paddy test: ducksalad
- Format: in vivo
- measurement setup: Flood (flooded paddy test), 250 g ai/ha; visual rating after 13 to 15 days, scale 0 to 100 (0 no effect, 100 complete control)
Quick reference: Plant response rating, Ducksalad of the listed items.
measured parameter: Plant response rating, Ducksalad

>>> reported_measurement("FC(F)(F)c1ccc(-n2nc(Br)c(Cc3cccc(C(F)(F)F)c3)n2)cc1")
75
>>> reported_measurement("Cc1nn(-c2ccc(C(F)(F)F)cc2)nc1Oc1ccnc(OC(F)F)c1")
65
>>> reported_measurement("CCc1nn(-c2ccc(C(F)(F)F)cc2)nc1Cn1cnc(C(F)(F)F)c1")
20
>>> reported_measurement("Cc1nn(-c2ccc(C(F)(F)F)cc2)nc1Oc1cccc(OC(F)(F)F)c1")
80
>>> reported_measurement("Cc1nn(-c2ccc(F)cc2)nc1Cn1cnc(C(F)(F)F)n1")
60
>>> reported_measurement("Cc1nn(-c2ccc(F)cc2)nc1Cn1c(Cl)nc(C(F)(F)F)c1Cl")
0
>>> reported_measurement("Cc1nn(-c2ccc(C(F)(F)F)cc2)nc1Cn1cc(C(F)(F)F)cn1")
0
>>> reported_measurement("Cc1nn(-c2ccc(C(F)(F)F)cn2)nc1Oc1ccnc(C(F)(F)F)c1")
85
>>> reported_measurement("Cc1nn(-c2ccc(F)cc2)nc1Oc1cccc(C(F)(F)F)c1")
70
>>> reported_measurement("Cc1nn(-c2ccnc(C(F)(F)F)c2)nc1C(=O)c1cccc(C(F)(F)F)c1")
40
>>> reported_measurement("Cc1nn(-c2ccc(F)cc2)nc1Cn1cc(C(F)(F)F)nc1Cl")
75
>>> reported_measurement("COc1nn(-c2ccc(C(F)(F)F)cc2)nc1C(C)(O)c1ccnc(C(F)(F)F)c1 (centres unmarked)")
0
>>> reported_measurement("Cc1nn(-c2ccc(C(F)(F)F)cc2)nc1Cn1cnc(C(F)(F)F)c1Cl")
0
>>> reported_measurement("Cc1nn(-c2ccc(C(F)(F)F)cc2)nc1Oc1cccc(Cl)c1")
40

* * *

Quick reference: Plant response rating, Wheat of the listed items.
- System: wheat (Triticum aestivum)
- assay remarks: Test A pre-/postemergence: wheat
- Type: in vivo
- measurement setup: Preemergence, 500 g ai/ha; 0 to 100 scale, 0 is no effect, 100 is complete control
- Description: Seeds of barnyardgrass (Echinochloa crus-galli), crabgrass, large (large crabgrass, Digitaria sanguinalis), foxtail, giant (giant foxtail, Setaria faberii), morningglory (Ipomoea spp.), pigweed (Amaranthus retroflexus), velvetleaf (Abutilon theophrasti), wheat (Triticum aestivum), and corn (Zea mays) were planted into a blend of loam soil and sand and treated preemergence with a directed soil spray using test chemicals formulated in a non-phytotoxic solvent mixture which included a surfactant. […]
measured parameter: Plant response rating, Wheat

>>> reported_measurement("CCc1nn(-c2ccc(F)cc2)nc1Cn1ccc(C(F)(F)C(F)(F)F)n1")
0
>>> reported_measurement("Cc1nn(-c2ccc(Br)cc2)nc1Oc1ccnc(C(F)(F)F)c1")
30
>>> reported_measurement("Fc1ccc(-n2nc(Cc3ccnc(C(F)(F)F)c3)c(OC(F)F)n2)cc1")
80
>>> reported_measurement("COc1cc(Cc2nn(-c3ccc(C(F)(F)F)cc3)nc2C)ccn1")
0
>>> reported_measurement("Cc1nn(-c2ccc(C(F)(F)F)cc2)nc1Cn1c(Cl)nc(C(F)(F)F)c1Cl")
0

* * *

- Test system: morningglory (Ipomoea coccinea)
- assay remarks: Test C pre-/postemergence: morningglory
- Type: in vivo
- measurement setup: Preemergence, 62 g ai/ha; scale of 0 to 100, 0 is no effect, 100 is complete control
Please note: yes applies when Plant response rating, Morningglory is 20 or greater, and no applies otherwise.

>>> cat("FC(F)(F)COc1nn(-c2ccc(C(F)(F)F)cc2)nc1Cc1ccnc(C(F)(F)F)c1")
"no"
>>> cat("COc1nn(-c2ccc(C(F)(F)F)cc2)nc1Cc1ccnc(C(F)(F)F)c1")
"no"
>>> cat("Cc1nn(-c2ccc(C(F)(F)F)cc2)nc1Oc1ccnc(C(F)(F)F)c1")
"yes"
>>> cat("COc1nn(-c2cccc(F)c2)nc1Cc1ccnc(C(F)(F)F)c1")
"no"
>>> cat("CCOc1nn(-c2ccc(Cl)cc2)nc1Cc1ccnc(C(F)(F)F)c1")
"yes"
>>> cat("Cc1nn(-c2ccc(C(F)(F)F)cn2)nc1Cc1cccc(C(F)(F)F)c1")
"no"
>>> cat("CCOCc1nn(-c2ccc(F)cc2)nc1Oc1ccnc(C(F)(F)F)c1")
"yes"

* * *

- Tested on: foxtail, giant (giant foxtail, Setaria faberii)
- assay remarks: Test F pre-/postemergence: foxtail, giant
- Format: in vivo
- measurement setup: Preemergence, 16 g ai/ha; scale 0 to 100, 0 no effect, 100 complete control
measured parameter: Plant response rating, Foxtail, Giant

>>> reported_measurement("CCc1nn(-c2ccc(F)c(F)c2)nc1Oc1ccnc(C(F)(F)F)c1")
40
>>> reported_measurement("Cc1nn(-c2ccc(C(F)(F)F)c(F)c2)nc1Oc1ccnc(C(F)(F)F)c1")
25
>>> reported_measurement("COc1nn(-c2cccc(F)c2)nc1Cc1ccnc(C(F)(F)F)c1")
0
>>> reported_measurement("CCc1nn(-c2ccc(C(F)(F)F)cc2)nc1Oc1ccnc(C(F)(F)F)c1")
70

* * *

- Test system: winter wheat (Triticum aestivum)
- assay remarks: Test C pre-/postemergence: winter wheat
- Type: in vivo
- measurement setup: Preemergence, 62 g ai/ha; scale of 0 to 100, 0 is no effect, 100 is complete control
Quick reference: Plant response rating, Wheat of the listed items.
measured parameter: Plant response rating, Wheat

>>> reported_measurement("Cc1nn(-c2ccc(C(F)(F)F)cn2)nc1Cc1cccc(C(F)(F)F)c1")
0
>>> reported_measurement("Cc1nn(-c2ccc(F)cc2F)nc1Oc1ccnc(C(F)(F)F)c1")
0
>>> reported_measurement("FC(F)(F)COc1nn(-c2ccc(C(F)(F)F)cc2)nc1Cc1ccnc(C(F)(F)F)c1")
15
>>> reported_measurement("CCCc1nn(-c2ccc(F)cc2F)nc1Oc1ccnc(C(F)(F)F)c1")
15

* * *

Quick reference: Plant response rating, Nutsedge, Yellow of the listed items.
- Test system: nutsedge, yellow (yellow nutsedge, Cyperus esculentus)
- assay remarks: Test C pre-/postemergence: nutsedge, yellow
- Format: in vivo
- measurement setup: Preemergence, 31 g ai/ha; scale 0 (no effect) to 100 (complete control)
measured parameter: Plant response rating, Nutsedge, Yellow

>>> reported_measurement("CCCc1nn(-c2ccc(C(F)(F)F)cc2)nc1Oc1ccnc(C(F)(F)F)c1 [Compound 170]")
0
>>> reported_measurement("CCCc1nn(-c2ccc(F)c(F)c2)nc1Oc1ccnc(C(F)(F)F)c1 [Compound 172]")
0
>>> reported_measurement("CCc1nn(-c2ccc(F)c(F)c2)nc1Oc1ccnc(C(F)(F)F)c1 [Compound 171]")
0
>>> reported_measurement("CCc1nn(-c2ccc(C(F)(F)F)cc2)nc1Oc1ccnc(C(F)(F)F)c1 [Compound 169]")
0
>>> reported_measurement("CCCc1nn(-c2ccc(F)cc2F)nc1Oc1ccnc(C(F)(F)F)c1 [Compound 179]")
0
>>> reported_measurement("CCOc1nn(-c2ccc(C(F)(F)F)cc2)nc1Cc1ccnc(C(F)(F)F)c1 [Compound 164]")
0
>>> reported_measurement("CCOc1nn(-c2ccc(Cl)cc2)nc1Cc1ccnc(C(F)(F)F)c1 [Compound 188]")
5

* * *

- Test system: barley, spring (spring barley, Hordeum vulgare)
- assay remarks: Test D pre-/postemergence: barley, spring
- Format: in vivo
- measurement setup: Preemergence; 62 g ai/ha; scale 0 to 100
measured parameter: Plant response rating, Barley, Spring

>>> reported_measurement("Cc1nn(-c2ccc(C(F)(F)F)c(F)c2)nc1Oc1ccnc(C(F)(F)F)c1")
5
>>> reported_measurement("COc1nn(-c2ccc(C(F)(F)F)cc2)nc1Cc1ccnc(C(F)(F)F)c1")
0
>>> reported_measurement("CCc1nn(-c2ccc(C(F)(F)F)cc2)nc1Cc1ccnc(C(F)(F)F)c1")
5
>>> reported_measurement("Cc1nn(-c2ccc(C(F)(F)F)cn2)nc1Cc1cccc(C(F)(F)F)c1")
0
